# Tested on: Trypanosoma brucei
# EXPERIMENT: Ratio of Kinact to Ki of Trypanosoma brucei rhodesain
EXPERIMENTAL_READOUT: Ratio (M⁻¹ s⁻¹)
Just the number in M⁻¹ s⁻¹, nothing appended.

Query :: Consider the compound shown here: O=C(N[C@@H](Cc1ccccc1)C(=O)N[C@H](/C=C/S(=O)(=O)c1ccccc1)CCc1ccccc1)c1ccc2c(c1)OCCO2 What is its recorded Ratio?
Result :: 223000

Query :: # iterate: Cc1ccc(C[C@H](NC(=O)c2ccccn2)C(=O)N[C@H](/C=C/S(=O)(=O)c2ccccc2)CCc2ccccc2)cc1
Result :: 327000

Query :: # iterate: O=C(N[C@@H](Cc1cccc(C(F)(F)F)c1)C(=O)N[C@H](/C=C/S(=O)(=O)c1ccccc1)CCc1ccccc1)c1cc(F)cc(F)c1
Result :: 52000

Query :: # iterate: Cc1ccc(C[C@H](NC(=O)c2ccc(C(F)(F)F)cc2)C(=O)N[C@H](/C=C/S(=O)(=O)c2ccccc2)CCc2ccccc2)cc1
Result :: 420000

Query :: # iterate: Cc1ccc(C[C@H](NC(=O)c2cc(F)cc(F)c2)C(=O)N[C@H](/C=C/S(=O)(=O)c2ccccc2)CCc2ccccc2)cc1
Result :: 366000

Query :: # iterate: Cc1cccc(C[C@H](NC(=O)N2CCN(C)CC2)C(=O)N[C@H](/C=C/S(=O)(=O)c2ccccc2)CCc2ccccc2)c1
Result :: 517000

Query :: # iterate: Cc1ccc(C[C@H](NC(=O)N2CCN(C)CC2)C(=O)N[C@H](/C=C/S(=O)(=O)c2ccccc2)CCc2ccccc2)cc1
Result :: 852000

Query :: # iterate: O=C(N[C@@H](Cc1ccccc1)C(=O)N[C@H](/C=C/S(=O)(=O)c1ccccc1)CCc1ccccc1)c1ccc(C(F)(F)F)cc1
Result :: 104000

Query :: # iterate: O=C(N[C@@H](Cc1ccccc1)C(=O)N[C@H](/C=C/S(=O)(=O)c1ccccc1)CCc1ccccc1)c1cc(F)cc(F)c1
Result :: 317000
